The reported measurements were obtained from paper PMC8193015.

Target: “empty” DQ6 (DQA1*01:02/DQB1*06:02) with leucine zippers displayed on yeast as a noncovalent αβ heterodimer (human)
Assay: flow cytometry on cells
Ends that are not written are not given here.

Binder	Value units	IC50
MNLPSTKVSWAAV (not fully specified) [HCRT1–13 peptide, nonbiotinylated]	µM	30
